Tested on: UO-31 renal
ASSAY TEXT: NCI-60 one-dose screen, 48 h (100 = growth as untreated, 0 = no growth, -100 = all killed)
RUN PARAMETERS: 10 µM unless noted
About 83,000 compounds went through this panel and 20% of them were active in at least one assay; those are over-represented in the sample as a whole.
Kindly return criterion met if reported growth is no lower than 60%; return criterion not met if it is lower.

Example results:
STRUCTURE SMILES STRING: COc1cc(-c2nn(-c3cccc(NC(=O)c4ccc(N5CCOCC5)c(C(F)(F)F)c4)c3)cc2-c2ccncc2)ccc1Cl
CAT: criterion not met

STRUCTURE SMILES STRING: COc1ccc(N=Cc2c(O)ccc3c2oc2cc(Cl)c(O)c(Cl)c23)cc1
CAT: criterion met

STRUCTURE SMILES STRING: O=C(NS(=O)(=O)c1ccccc1)n1cc(-c2ccncc2)c(-c2ccc(Cl)c(O)c2)n1
CAT: criterion met

STRUCTURE SMILES STRING: Fc1ccccc1-c1nc(-c2nc3cc(Cl)c(Cl)cc3[nH]2)c2ccccn12
CAT: criterion met

Could you now look at the following molecule, please?
(Q) Textbook exercise: given the entry S=C(S)NCCc1c[nH]c2ccccc12 , state whether its growth is greater than or equal to 60%.
(A) criterion met

====

Test system: NCI-H460 lung
ASSAY TEXT: NCI-60 one-dose screen, 48 h
RUN PARAMETERS: 10 µM unless noted
This is part of a sample that, as a whole, favours compounds with a hit. Of some 83,000 tested, about 20% had one in any assay. Active and inactive are the calls of the source. How the source made its calls: active means growth percent below 10; inactive means the rest.
Log the outcome using a class from active, inactive

MOLECULE: Oc1ccccc1/C=N/NC(=S)NC1CC2C=CC1C2 (stereo unspecified)
TEST SYSTEM: NCI-H460 lung
CAT: inactive

MOLECULE: CC(NNC(C)c1ccccc1)c1ccccc1 (stereo unspecified)
TEST SYSTEM: NCI-H460 lung
CAT: inactive

MOLECULE: CN(CCCCCl)P(=O)(OCc1ccc([N+](=O)[O-])o1)C(F)(F)C[C@H](NC(=O)CNC(=O)c1ccc(N=[N+]=[N-])cc1)C(=O)NCCc1ccc(O)cc1 (stereo partly specified)
TEST SYSTEM: NCI-H460 lung
CAT: inactive

Could you now look at the following molecule, please?
(Q) Recorded test call requested for CC(C)(C)OC(=O)NCCc1ccc(N=C=S)cc1
(A) inactive

====

Can you tell me growth for the items I'm about to list?
Test system: HCC-2998 colon
ASSAY TEXT: NCI-60 one-dose screen, 48 h (100 = growth as untreated, 0 = no growth, -100 = all killed)
RUN PARAMETERS: 10 µM unless noted
The panel holds about 83,000 compounds, 20% with a hit somewhere; the sample as a whole holds those more often. Calls of active or inactive are those of the source. The calls were made as follows: active = growth percent below 10; inactive = the rest.

MOLECULE: Cn1ccc(=O)c(S(N)(=O)=O)c1
growth: 102% (inactive)

MOLECULE: CCCN=C1NC(=O)/C(=C/c2nc(-c3ccc(OC)cc3)n3ccccc23)S1
growth: 97% (inactive)

MOLECULE: COc1ccc(S(=O)(=O)Nc2cc(/C=C\c3cc(OC)c(OC)c(OC)c3)cc(OC)c2OC)cc1
growth: 17.7% (inactive)

MOLECULE: N#C/C(=C1C=C/C(=N/O)C(Cl)=C/1)c1ccc(Cl)cc1
growth: 101% (inactive)

MOLECULE: CCOC(=O)c1ccc2c(c1)c1c(C)c3cccnc3c(C)c1n2C
growth: 86.9% (inactive)

// input: 8 molecules below; output: growth for each
1. NC1N=C(SCC(=O)N2CCN(c3cc4c(cc3F)c(=O)c(C(=O)O)cn4C3CC3)CC2)NC(=O)/C1=C/c1ccc(Cl)cc1 (stereo not drawn)
2. C=C(C)[C@@H]1C[C@@H]2Cc3ccc(Cl)c(C)c3N1O2
3. S=c1[nH]nc(-c2cc3ccc2CCc2ccc(cc2)CC3)n1-c1ccccc1
4. Cc1cc(C)n(-c2nnc3n2N=C(c2ccc(-c4ccccc4)cc2)CS3)n1
5. C=C[C@@H]1C[C@@H]2Cc3cc(Cl)ccc3N1O2
6. COc1ccc2c(c1)[nH]c(=O)c1c3cc(C)c(C)cc3cn21
7. Cc1cccc(/C=N/Nc2cc(C)c3cccc(C)c3n2)n1
8. CCOC(=O)c1cc(C(=O)c2cc(OC)c(OC)c(OC)c2)n2c1ccc1ccccc12

(A)
109% (inactive)
90.5% (inactive)
113% (inactive)
76.8% (inactive)
94.2% (inactive)
15.7% (inactive)
108% (inactive)
69.5% (inactive)

// input: 5 molecules below; output: growth for each
1. CC12CCC3C4(C)COC(c5ccco5)OC4CCC3(C)C1CC(C1=CCOC1=O)O2 (stereo not drawn)
2. CCOC(=O)/C(C#N)=C1/C(=O)Nc2ccccc21
3. Nc1ccc(C(=O)CSc2nc3ccccc3[nH]2)cc1
4. CCN(CC)CCOc1ccc(Cl)c(C)c1
5. CCCCOc1ccc(/C=C2/SC(N3CCOCC3)=NC2=O)cc1OCC

(A)
105% (inactive)
109% (inactive)
100% (inactive)
90.6% (inactive)
109% (inactive)

// input: 5 molecules below; output: growth for each
1. O=C(O)C1CCCCN1c1nc(Cl)nc(Cl)n1 (stereo not drawn)
2. CCCCCCCCCCCCNC(=O)[C@H]1CSC(c2ccsc2)N1 (stereo partly drawn)
3. Cc1ccc(S(=O)(=O)n2cc(C(=O)C(=O)Nc3ccncc3)c3ccccc32)cc1
4. COc1ccc2c(c1)cn1c3ccc(OC)cc3[nH]c(=O)c21
5. CC(C)CC1NC(C)(C)CO1 (stereo not drawn)

(A)
101% (inactive)
11% (inactive)
52.8% (inactive)
-68.5% (active)
102% (inactive)

====

Tested on: HCT-15 colon
ASSAY TEXT: NCI-60 one-dose screen, 48 h
RUN PARAMETERS: 10 µM unless noted
About 83,000 compounds went through this panel and 20% of them were active in at least one assay; those are over-represented in the sample as a whole. Active and inactive are the calls of the source. How the source made its calls: active means growth percent below 10; inactive means the rest.
Log the outcome using a class from yes for active, no for inactive

Example results:
COMPOUND: COc1ccc2c(c1)OC1=C(C(=O)OC1)C2c1cc(OC)c2c(c1)OCO2 (stereo not given)
TEST SYSTEM: HCT-15 colon
CAT: no
--
COMPOUND: C=C1CCC[C@]2(C)CCC[C@H](C)[C@@H](OC(C)=O)[C@@H]3OC(=O)C(=C)[C@@H]3C[C@H]1O2
TEST SYSTEM: HCT-15 colon
CAT: no
--
COMPOUND: COc1ccc(-c2[nH]nc(N)c2-c2cc(OC)c3c(c2)OCO3)cc1
TEST SYSTEM: HCT-15 colon
CAT: no
--
COMPOUND: COc1c2occc2c(OC)c2c(=O)c(-c3cc(-c4ccc(F)cc4)c(C#N)c(N)n3)c(C)oc12
TEST SYSTEM: HCT-15 colon
CAT: no
--
COMPOUND: COc1cc(-c2nn(-c3cccc(NC(=O)c4cccc(C(F)(F)F)c4)c3)cc2-c2ccncc2)ccc1Cl
TEST SYSTEM: HCT-15 colon
CAT: no

(Q) Recorded test call requested for Cc1cc(N)n(S(=O)(=O)c2oc(-c3ccccc3)nc2C#N)n1
(A) no

(Q) Recorded test call requested for CC(C)(C)OC(=O)NC(CSCc1ccccc1)C(=O)ON1C(=O)CCC1=O (stereo not given)
(A) no

(Q) Recorded test call requested for Nc1cccc(Cl)c1N
(A) no

====

System: UACC-62 melanoma
ASSAY TEXT: NCI-60 one-dose screen, 48 h (100 = growth as untreated, 0 = no growth, -100 = all killed)
RUN PARAMETERS: 10 µM unless noted
This is part of a sample that, as a whole, favours compounds with a hit. Of some 83,000 tested, about 20% had one in any assay.
READOUT: growth (%)
Give bare numbers, in %.

COMPOUND: CCOC(=O)/C(C#N)=C1/C(=O)Nc2ccccc21
TEST SYSTEM: UACC-62 melanoma
UNIT DESCRIPTOR: %
growth: 103
//
COMPOUND: O=C1CS/C(=N\Nc2cc(=O)[nH]c3ccccc23)N1c1ccccc1
TEST SYSTEM: UACC-62 melanoma
UNIT DESCRIPTOR: %
growth: 85.5
//
COMPOUND: OC(c1cc2cc(Br)ccc2c2cc(Br)ccc12)C1CCCCN1 (stereo unspecified)
TEST SYSTEM: UACC-62 melanoma
UNIT DESCRIPTOR: %
growth: -79.4

// input: 3 compounds below; output: growth for each
1. O=C(O)COc1ccc(-c2cssc2=S)cc1
2. CO[C@H]1NC(=O)N(S(=O)(=O)c2ccc(Cl)cc2)[C@@H]1OC
3. COc1cc([N+](=O)[O-])c2ncccc2c1O

(A)
107
100
15.8

// input: 8 compounds below; output: growth for each
1. COc1ccc(C(=O)N2NC(=O)/C(=C/c3ccccc3F)N=C2c2ccccc2)cc1
2. COc1ccncc1S(=O)(=O)NC(=O)Nc1ccc(Cl)c(Cl)c1
3. O=C(/C=C\c1cccc([N+](=O)[O-])c1)/C=C/c1cccc([N+](=O)[O-])c1
4. COc1ccc(-c2nc(-c3nc4cc(C)c(C)cc4[nH]3)cc3c2[nH]c2ccccc23)cc1
5. CCCCCCCCCCCCCCCCCCNC(=O)[C@H]1CSC(c2ccc(OC)cc2O)N1 (stereo partly specified)
6. CC(=O)OC[C@]12CC[C@H]3[C@@H](C[C@H]4O[C@]45CC=CC(=O)[C@]35C)[C@]1(O)CC[C@@]2(O)[C@@](C)(O)C1CC(C)=C(C)C(=O)O1 (stereo partly specified)
7. COc1cc(/C=C/C(=O)N2CCN(C(=O)/C=C/c3cc(OC)c(OC)c(OC)c3)CC2)cc(OC)c1OC
8. COc1ccc(/C=C2\Oc3cc(OCCCN4CCCC4)ccc3C2=O)c(OC)c1

(A)
102
66.7
78.1
-0.969
74.9
-71.1
89.1
99.3

// input: 2 compounds below; output: growth for each
1. c1ccc(-c2nc(N3CCNCC3)c3nc(-c4ccccc4)oc3n2)cc1
2. CCN(CC)CCC(CNc1ccnc2cc(Cl)ccc12)c1ccc(Cl)cc1 (stereo unspecified)

(A)
-92.8
-74.5

// input: 4 compounds below; output: growth for each
1. Cc1ccc(Cc2c(C=O)nc(N)[nH]c2=O)c2ccccc12
2. OCc1ncc(-c2ccccc2)s1
3. COc1cc(C2CC(c3ccc4c(c3)OCO4)=NN2C=O)cc(OC)c1OC (stereo unspecified)
4. O=c1c2sc3ncccc3c2nnn1-c1ccccc1

(A)
1: 110; 2: 106; 3: 40.9; 4: 105

// growth lookup, compound = O=C(Nc1cccc(-n2cc(-c3ccncc3)c(-c3ccc(Cl)c(O)c3)n2)c1)Nc1ccc(Cl)c(C(F)(F)F)c1 , result: -55.1
